# Tested on: M. avium complex NTM 0813
# methodSummary: MIC of CF NTM clinical isolates
# Assay type: cell-based
# conditionLabel: Mycobacterium avium; M. avium complex NTM 0813; read-out: MIC
measuredMetric: MIC (µg/mL)

[[record]]
chemicalstructure = "CC[C@H]1OC(=O)[C@H](C)[C@@H](O[C@H]2C[C@@](C)(OC)[C@@H](O)[C@H](C)O2)[C@H](C)[C@@H](O[C@@H]2O[C@H](C)C[C@H](N(C)C)[C@H]2O)[C@](C)(O)C[C@@H](C)CN(C)[C@H](C)[C@@H](O)[C@]1(C)O"
measuredmetric = "MIC"
recordednumber = 2

[[record]]
chemicalstructure = "NCC[C@H](O)C(=O)N[C@@H]1C[C@H](N)[C@@H](O[C@H]2O[C@H](CN)[C@@H](O)[C@H](O)[C@H]2O)[C@H](O)[C@H]1O[C@H]1O[C@H](CO)[C@@H](O)[C@H](N)[C@H]1O"
measuredmetric = "MIC"
recordednumber = 2

[[record]]
chemicalstructure = "CO[C@H]1/C=C/O[C@@]2(C)Oc3c(C)c(O)c4c(O)c(c(/C=N/N5CCN(C)CC5)c(O)c4c3C2=O)NC(=O)/C(C)=C\\C=C\\[C@H](C)[C@H](O)[C@@H](C)[C@@H](O)[C@@H](C)[C@H](OC(C)=O)[C@@H]1C"
measuredmetric = "MIC"
recordednumber = 4

[[record]]
chemicalstructure = "CC[C@@H](CO)NCCN[C@@H](CC)CO"
measuredmetric = "MIC"
recordednumber = 2


====

# Tested on: M. abscessus subsp. abscessus NTM 0082
# methodSummary: MIC of CF NTM clinical isolates
# Assay type: cell-based
# conditionLabel: Mycobacteroides abscessus; M. abscessus subsp. abscessus NTM 0082; read-out: MIC
Examples of compounds with documented MIC follow.
measuredMetric: MIC (µg/mL)

[[record]]
compound = "CC[C@@H](CO)NCCN[C@@H](CC)CO [Ethambutol]"
resultunits = "µg/mL"
recordednumber = 32

[[record]]
compound = "CO[C@H]1/C=C/O[C@@]2(C)Oc3c(C)c(O)c4c(O)c(c(/C=N/N5CCN(C)CC5)c(O)c4c3C2=O)NC(=O)/C(C)=C\\C=C\\[C@H](C)[C@H](O)[C@@H](C)[C@@H](O)[C@@H](C)[C@H](OC(C)=O)[C@@H]1C [Rifampicin]"
resultunits = "µg/mL"
recordednumber = 2

[[record]]
compound = "CC[C@H]1OC(=O)[C@H](C)[C@@H](O[C@H]2C[C@@](C)(OC)[C@@H](O)[C@H](C)O2)[C@H](C)[C@@H](O[C@@H]2O[C@H](C)C[C@H](N(C)C)[C@H]2O)[C@](C)(O)C[C@@H](C)CN(C)[C@H](C)[C@@H](O)[C@]1(C)O [Azithromycin]"
resultunits = "µg/mL"
recordednumber = 32

[[record]]
compound = "NCC[C@H](O)C(=O)N[C@@H]1C[C@H](N)[C@@H](O[C@H]2O[C@H](CN)[C@@H](O)[C@H](O)[C@H]2O)[C@H](O)[C@H]1O[C@H]1O[C@H](CO)[C@@H](O)[C@H](N)[C@H]1O [Amikacin]"
resultunits = "µg/mL"
recordednumber = 8

